B1: TRIM15 (parent)
chain: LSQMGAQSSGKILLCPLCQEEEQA

# Variants of: B1
# EXPERIMENT NOTES: protein stability index of a GFP-peptide fusion (GPS, HEK-293T) (PSI 1-6); higher = more stable;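 also: lentivirally expressed fusions sorted by FACS into six bins by GFP to DsRed ratio, PSI derived from sequencing read proportions per bin multiplied by bin number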
# CONDITION DESCRIPTION: c terminus: a fixed tail appended
Measured protein stability index values are reported for all entries that follow.
Answer as a number with no unit attached.

Use the examples below as a reference point.
1) E21G | 2.83
2) A6V | 3.81
3) C18M | 4.61
4) K11M | 3.12
5) E20G | 2.81
6) Q23N | 3.67

# input I have this variant here, "L13I" , and I need its recorded protein stability index.
# output 4.08
